# Tested on: Cryptococcus neoformans H99
value_kind: MIC

# MIC lookup, item Nc1ncccc1-c1cc(Cc2ccc(CCC3CCCCC3)cc2)no1
0.1 to 1 µg/mL

# MIC lookup, item Nc1ncccc1-c1cc(Cc2ccc(Cc3ccoc3)cc2)no1
0.01 to 0.1 µg/mL

# MIC lookup, item C#CCCOc1ccc(Cc2cc(-c3cccnc3N)on2)cn1
0.1 to 1 µg/mL

# MIC lookup, item Nc1ncccc1-c1cc(Cc2ccc(OCc3cc(F)cc(F)c3)nc2)no1
0.01 to 0.1 µg/mL

# MIC lookup, item Nc1ncccc1-c1cc(Cc2ccnc(OCc3ccccc3)c2)no1
0.01 to 0.1 µg/mL

# MIC lookup, item Nc1ncccc1-c1cc(Cc2ccnc(OCCc3cccc(F)c3)c2)no1
0.1 to 1 µg/mL

# MIC lookup, item Nc1ncccc1-c1cc(Cc2ccc(Oc3ncc(Cl)cc3F)cc2)no1
0.1 to 1 µg/mL

# MIC lookup, item Nc1ncccc1-c1cc(Cc2ccc(OCCn3cccn3)nc2)no1
0.1 to 1 µg/mL

# MIC lookup, item Nc1ncccc1-c1cc(Cc2ccc(Nc3ccccc3F)nc2)no1
0.01 to 0.1 µg/mL
